# Experiment Description: Example 7 pharmacokinetics assay for PKPD study (plasma, tumor, liver)
# Format: in vivo, BALB/c nude mice
# Condition Summary: mouse, plasma, po; 10 mg/kg, p.o., single dose; 1 h; read-out: Concentration in Plasma (mean ± SEM)
# Protocol: For the PK and PD study, agents were administered to BALB/c nude mice bearing A375 human melanoma xenografts tumors. Dabrafenib, Compound 141, Compound 118, Compound 156, and Compound 180 were dosed p.o. once on day 1. Known BRAF inhibitor Dabrafenib was used as a positive control. Dabrafenib was dosed at 100 mg/kg. Compound 141, Compound 118, Compound 156, and Compound 180 were dosed at 10 mg/kg. The plasma samples were collected at predetermined time points for PK analysis. […]
Endpoint Label: concentration at 1 h (µg/mL)

Example compounds with recorded concentration at 1 h:
CCN(C)S(=O)(=O)Nc1ccc(F)c(Oc2ccc3ncn(C4CC5(CCN(C6CC7(C6)CN(c6cc8c(cc6F)c(N6CCC(=O)NC6=O)nn8C)C7)CC5)C4)c(=O)c3c2)c1C#N (stereo not shown) : 17.7
CCN(C)S(=O)(=O)Nc1ccc(F)c(Oc2ccc3ncn(C4CC5(CCN(C6CCN(c7cc8c(cc7F)c(N7CCC(=O)NC7=O)nn8C)CC6)CC5)C4)c(=O)c3c2)c1C#N : 4.13

a. CCN(C)S(=O)(=O)Nc1ccc(F)c(Oc2ccc3ncc(C4CC5(CCN(C6CCC(c7cc8c(cc7F)c(N7CCC(=O)NC7=O)nn8C)CC6)CC5)C4)nc3c2)c1C#N (single isomer, unassigned)
b. CCN(C)S(=O)(=O)Nc1ccc(F)c(Oc2ccc3ncc(OCC4CCN(C5CCC(c6cc7c(cc6F)c(N6CCC(=O)NC6=O)nn7C)CC5)CC4)nc3c2)c1C#N (single isomer, unassigned)
Which value of concentration at 1 h is numerically greater: that of a or that of b ? Please identify the chosen entry by its label.
a
(a: 5.11 µg/mL, b: 1.24 µg/mL)
